# system under test: T1, SHP2 tandem domain N-SH2-C-SH2-SHP2 1-222 (human, UniProt Q06124 1-222)
# T1 sequence (looked up): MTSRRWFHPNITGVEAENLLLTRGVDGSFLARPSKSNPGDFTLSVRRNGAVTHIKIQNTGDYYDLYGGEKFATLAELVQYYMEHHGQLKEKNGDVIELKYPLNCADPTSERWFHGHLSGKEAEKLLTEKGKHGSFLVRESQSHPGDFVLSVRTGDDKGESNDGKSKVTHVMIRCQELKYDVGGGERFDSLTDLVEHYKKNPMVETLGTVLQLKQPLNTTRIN
# method notes: ITC
experimental readout: pKd
Interpret pKd as the negative base-10 log of the concentration measured in mol/L.

Identify pKd associated with the binder pY627pY659-Gab1 613-694 (bis-phosphorylated fragment of Grb2-associated binding protein 1) (peptide, UniProt Q13480 613-694, looked up, phosphotyrosine at 627 and 659) SSPMIKPKGDKQVEYLDLDLDSGKSTPPRKQKSSGSGSSVADERVDYVVVDQQKTLALKSTREAWTDGRQSTESETPAKSVK
7.43
